Kindly state Titer for each of the entries shown.
Target: T1, recombinant protein consisting of the extracellular domain of human TREM2 fused to the His tag (human, UniProt Q9NZC2 19-174)
T1 construct: also called His tagged hTREM2; His-TREM2
T1 sequence: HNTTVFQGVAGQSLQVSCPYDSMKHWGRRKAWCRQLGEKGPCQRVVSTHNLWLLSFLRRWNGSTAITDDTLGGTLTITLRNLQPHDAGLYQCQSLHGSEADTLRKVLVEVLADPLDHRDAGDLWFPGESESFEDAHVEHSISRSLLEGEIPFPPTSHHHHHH
Assay: direct ELISA; highest dilution with S/B >= 2.1
One number for each entry, in dilution.

Illustrative cases are given below, each with its answer.
[[record]]
binder = "54H2C1 (antibody, V domains shown, Biotin conjugated in sup ELISA, cell-based ELISA and flow cytometry) VH: QVQLQQPGAEPLTPGASVKMSCEASGYTFTNFWITWVKLRPGQGLEWIGDIYPGSGNTNYNEKFKSRATLTVDTSSTTAYMQLSSLTSEDSAVYYCAREAYYTNPGFAYWGHGTLVTVSA VL: DVLMTQSPLSLPVNLGDQASISCKSSQNIVHSNGNTYLEWYLQRPGQSPKLLIYKVSNRFSGVPDRFSGSGSGTDFTLKISRVEAEDLGLYYCFQGSHVPYTFGGGTKLEIK"
unitname = "dilution"
measuredresult = 729000

[[record]]
binder = "83E10B12 (antibody, V domains shown, Biotin conjugated in sup ELISA, cell-based ELISA and flow cytometry) VH: QVQLQESGPELVKPGASVKISCKASGYIFSYSWMNWVKQRPGKGLEWIGRIYPGDGDADYNGKFKGKATLTADKSSNTAYMQLTSLTSEDSAVYFCARLHIYDGYYVSVYWGQGTLVTVSA VL: DIQMTQTTSCLSASLGDRVTISCRASQDINNYLSWYQQKPDGTVKLLIYYTSKLHSGVPSRFSGSGSGTDYSLTIGNLEQEDVATYFCQQGDTLPWTFGGGTRLEIK"
unitname = "dilution"
measuredresult = 243000

[[record]]
binder = "60H4A3 (antibody, V domains shown, Biotin conjugated in sup ELISA, cell-based ELISA and flow cytometry) VH: EVQLQESGPELVKPGASVKMSCKASGYTFTDYNMHWVKQSHGKSLEWIGYIYPNNGGTGYNQKFKGKATLTVNKSSSTAYMELRSLTSEDSAVYYCARSGRGFAYWGQGTLVTVSA VL: DIVMTQSPASLSVTPGDRVSLSCRASQSISDYLHWYQQKSHESPRLLIKYASQSISGIPSRFSGSGSGSDFTLSINSVEPEDVGVYYCQNGHSFPYTFGGGTKLEIK"
unitname = "dilution"
measuredresult = "2.19e+06"


Items follow; give Titer for each.
1. 60H4G2 (antibody, V domains shown, Biotin conjugated in sup ELISA, cell-based ELISA and flow cytometry) VH: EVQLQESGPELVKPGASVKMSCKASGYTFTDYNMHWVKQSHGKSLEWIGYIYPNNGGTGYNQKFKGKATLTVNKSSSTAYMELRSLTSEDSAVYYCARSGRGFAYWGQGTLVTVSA VL: DIVMTQSTSSLTVTAGEKVTMSCKSSQSLLNSGNQKNYLTWYQQKPGQPPKLLIYWASSRESGVPDRFTGRGSGTDFTLTISSVQAEDLAVYYCQNDYSYPFTFGSGTKLEIK
2. 61B11C9 (antibody, V domains shown, Biotin conjugated in sup ELISA, cell-based ELISA and flow cytometry) VH: QLQESGPEQVKPGASVKMSCRTSGYTFTAYNMHWVKQRLGKSLEWIGYIRPTNGDTRYNRRFRDKATLTVDKSSSTTYMELRSLTSEDSAVYYCTRSTTVASFDYWGQGTTLTVSS VL: DIVMTQTTSSLTVSVGQKITLNCKSSQSLLYTNNQKNFLAWYQQKPGQSPKLLIYWASTRDSGVPDRFTGSGSGTDFTLTITSVMAEDLAVYFCQQYYDFPPTFGGGTKLEIK
3. 80E3C7 (antibody, V domains shown, Biotin conjugated in sup ELISA, cell-based ELISA and flow cytometry; also called anti-TREM2 antibody (E3C7); TREM2 Ab E3C7) VH: QVQLQQPGAEPLKPGASVKMSCEASGYTFTNFWITWMKLRPGQGLEWIGDIYPGTGNTNYNEKFKSRATLTVDTSSTTAYMQLSSLTSEDSAVYYCAREAYYTNPGFAYWGHGTLVTVSA VL: DVLMTQSPLSLPVNLGDQASISCKSSQNIVHSNGNTYLEWYLQRPGQSPKLLIYKVSNRFSGVPDRFSGSGSGTDFTLKISRVEAEDLGVYYCFQGSHVPYTFGGGTKLEIK

729000
2.19e+06
2.19e+06

Where do these numbers come from? They come from patent US20240239886A1.
